# Tested on: 156681-154-R-J1 tumor spheroid viability
# assay protocol: Anticancer human tumor 156681-154-R-J1 patient-derived melanoma cell line growth inhibition
# test parameters: second compound 30 pM; first compound 0.316 µM; stronger effect = lower value; spheroids with HUVEC and MSC
Kindly apply the following: TRUE if viability, T/C is less than 90%, FALSE in every other case.

>  <compound>
CC1COCCN1c1cc(-c2ccnn2C)c2ccnc(-c3ccn[nH]3)c2n1 (stereo unspecified) + COc1cc2c(cc1O)CCNC21CSC2c3c(OC(C)=O)c(C)c4c(c3C(COC1=O)N1C(O)C3Cc5cc(C)c(OC)c(O)c5C(C21)N3C)OCO4

>  <label class>
TRUE

$$$$

Consider the record given below.
QUERY: Determine if CC(C)n1c(=O)n(C)c2cnc3cc(F)c(-c4ccc(OCCCN5CCCCC5)nc4)cc3c21 + COc1cc2c(cc1O)CCNC21CSC2c3c(OC(C)=O)c(C)c4c(c3C(COC1=O)N1C(O)C3Cc5cc(C)c(OC)c(O)c5C(C21)N3C)OCO4 shows viability, T/C strictly lower than 90%.
RESULT: TRUE

---

# System: 156681-154-R-J1 tumor spheroid viability
# assay protocol: Anticancer human tumor 156681-154-R-J1 cell line growth inhibition;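 note: spheroids exposed to compounds for 7 days before readout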;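 for viability, T/C: percent of vehicle control viability where 100% = DMSO-treated spheroids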
# test parameters: second compound 3.16 µM; first compound 3 µM; stronger effect = lower value; spheroids with HUVEC and MSC
property: viability, T/C

// below: answered compounds
>  <compound>
CNCc1ccc(-c2cc(-c3nc(-c4ccc(S(=O)(=O)C(C)C)cc4)cnc3N)on2)cc1 + Cn1nnc2c(C(N)=O)ncn2c1=O

>  <viability, T/C>
16.8%

$$$$
>  <compound>
O=C(c1cc(Cc2n[nH]c(=O)c3ccccc23)ccc1F)N1CCN(C(=O)C2CC2)CC1 + Cn1nnc2c(C(N)=O)ncn2c1=O

>  <viability, T/C>
74.2%

$$$$
>  <compound>
Cc1sc2c(c1C)C(c1ccc(Cl)cc1)=NC(CC(=O)Nc1ccc(O)cc1)c1nnc(C)n1-2 (centres undefined) + Cn1nnc2c(C(N)=O)ncn2c1=O

>  <viability, T/C>
37.4%

$$$$

Now take the following compound into account.
QUERY: Value lookup for viability, T/C; key = Cn1ncnc1[C@H]1c2n[nH]c(=O)c3cc(F)cc(c23)N[C@@H]1c1ccc(F)cc1 + Cn1nnc2c(C(N)=O)ncn2c1=O
RESULT: 15.2%

---

# Test system: 156681-154-R-J1 tumor spheroid viability
# assay protocol: Anticancer human tumor 156681-154-R-J1 cell line growth inhibition;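 note: spheroids exposed to compounds for 7 days before readout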
# test parameters: curve of first compound; second compound 0.003 µM; spheroids with HUVEC and MSC
property: IC50

>  <compound>
CC(C)n1c(=O)n(C)c2cnc3cc(F)c(-c4ccc(OCCCN5CCCCC5)nc4)cc3c21 + COc1cc2c(cc1O)CCNC21CSC2c3c(OC(C)=O)c(C)c4c(c3C(COC1=O)N1C(O)C3Cc5cc(C)c(OC)c(O)c5C(C21)N3C)OCO4

>  <target>
156681-154-R-J1 tumor spheroid viability

>  <IC50>
< 31.6 nM

$$$$

Consider the additional compound presented here.
QUERY: Record request: IC50 value, item CNCc1ccc(-c2cc(-c3nc(-c4ccc(S(=O)(=O)C(C)C)cc4)cnc3N)on2)cc1 + COc1cc2c(cc1O)CCNC21CSC2c3c(OC(C)=O)c(C)c4c(c3C(COC1=O)N1C(O)C3Cc5cc(C)c(OC)c(O)c5C(C21)N3C)OCO4
RESULT: < 9.49 nM
